Values compiled from PubChem BioAssay (NCI).

Task for the reader: assign each of the following molecules its reported growth inhibition.
# assay.comment: NCI Yeast Anticancer Drug Screen. Data for the sgs1 strain (AID 173);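 note: 0% = growth of vehicle-only control cultures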
# condition.info: S. cerevisiae sgs1 mutant, at 11.0 µM, active compounds read high
The panel holds about 79,000 compounds, 15% with a hit somewhere; the sample as a whole holds those more often. Active and inactive are the calls of the source. Cut-off read from the data, not from the text of the source: active = growth inhibition above about 70%; inactive = the rest.

Example cases with answers are listed next.
O=NN(CCCl)C(=O)NC1CCCCC1 | 22% (inactive)
O=C(/C=N/O)Nc1cc(Cl)c(Cl)cc1Cl | -36% (inactive)
O=C(N/N=C\c1c(Cl)cccc1Cl)N/N=C/c1c(Cl)cccc1Cl | 19% (inactive)
COc1cc(CNc2ccc(C(C)C)cc2)cc(OC)c1OC | 21% (inactive)

Now take the following molecule into account.
Req: If you can, please state the reported growth inhibition value of CC1C(C#N)(C#N)C(C#N)=C(N)C1(Cl)[N+](=O)[O-] (stereo not given) .
Resp: 37% (inactive)

----------
# assay.comment: NCI Yeast Anticancer Drug Screen. Data for the rad52 strain (AID 147);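 note: 0% = growth of vehicle-treated control cultures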
# condition.info: S. cerevisiae rad52 mutant growth inhibition; at 1.2 µM; active compounds read high
The panel holds about 79,000 compounds, 15% with a hit somewhere; the sample as a whole holds those more often.
Decide by growth inhibition: equal to or exceeding -20% means TRUE, less means FALSE.

A selection of reference data follows.
O=C(Nc1cccc(C(F)(F)F)c1)Oc1ccc(Cl)cc1C(=O)c1ccccc1 | TRUE
NNC(=S)Nc1cccc(Cl)c1 | TRUE
COc1ccc(S(=O)(=O)N/N=C\c2cc([N+](=O)[O-])cc(I)c2O)c(OC)c1OC | TRUE
NC(N)=NCCCS(=O)(=O)Nc1ccc(Nc2c3ccccc3nc3cc([N+](=O)[O-])ccc23)cc1 | FALSE

Let's switch to this molecule now.
Req: Dear colleague, could you confirm whether Clc1c(Cl)c(Cl)c2c(nnn2C2CCCO2)c1Cl (stereo not given) has growth inhibition at or above -20%?
Resp: TRUE

----------
Task for the reader: assign each of the following compounds its reported growth inhibition.
# assay.comment: NCI Yeast Anticancer Drug Screen. Data for the rad18 strain (AID 177)
# condition.info: S. cerevisiae rad18 mutant growth inhibition; at 3.7 µM; active compounds read high
Compounds without any hit were thinned out: in the full panel of roughly 79,000, 15% have a hit.
Answers are plain numbers, in %.

Example cases with answers are listed next.
Cc1ccccc1NC(=O)Cc1csc(N/N=C2\NC(=O)/C(=C/c3cccc([N+](=O)[O-])c3)S2)n1 | -3
COc1cc(NCc2ccc3nc(N)nc(N)c3c2C)cc(OC)c1OC | -2
O=C(NC(=S)Nc1ccccn1)c1ccccc1 | -56
O=S(=O)(N/N=C/c1cccc(Cl)c1)c1ccccc1 | 1
Cc1ccc2occ/c(=N\Nc3ccccc3)c2c1 | -1
O=C1C(Cl)=C(Cl)C(Cl)(Cl)C(Cl)C1(Cl)Cl (configuration not stated) | 73

Hi! Can you tell me growth inhibition for each of these compounds?
1. CCCCC1=NNC(=O)C1
2. CN(N=O)c1ccc(/C=C/c2ccnc3ccccc23)cc1
3. O=C(N/N=C\c1c(Cl)cccc1Cl)N/N=C/c1c(Cl)cccc1Cl

Resp:
[1, 2, 1]

Hi! Can you tell me growth inhibition for each of these compounds?
1. [N-]=[N+]=NC(c1ccccc1)(c1ccccc1)c1ccccc1
2. O=C1C=CC(=O)N1c1ccc(I)cc1

Resp:
1. 6
2. 35

Req: If you can, please state the reported growth inhibition value of CN(C)c1ccc(N=Nc2ccccn2)cc1 .
Resp: -10
